System: Escherichia coli TOP10;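 also: peptides expressed intracellularly from a pBAD plasmid library in pooled LB shake-flask culture, induced with 0.3% L-arabinose, DNA abundance read by NGS, three biological replicates, DESeq2 with apeglm shrinkage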
experiment.notes: shrunken log2 fold change of peptide-encoding DNA abundance (4.5 h post-induction vs induction); higher = less antimicrobial activity (less host growth inhibition)
test.parameters: time post-induction: 4.5 h; library: site-saturation at positions 5, 18, 19, 20
// values below are reported shrunken log2 fold change

{"columns": ["seq.text", "shrunken log2 fold change"],
 "data": [
  ["RRIRGRPPRLPRPRPRPMHHPRP", 0.533],
  ["RRIRERPPRLPRPRPRPQMPPRP", -0.292],
  ["RRIRCRPPRLPRPRPRPMGCPRP", -0.0697],
  ["RRIRNRPPRLPRPRPRPCNFPRP", -0.0737]
]}
